- ASSAY_METHOD_TEXT: MRT (0 to t) in mouse at 10 mg/kg, ig administered as single dose measured upto 24 hrs by LC-MS/MS analysis
- Format: ADME, organism-based
- CONDITION_CONTEXT: in vivo, po
QUANTITY: MRT last at 24 h (h)
Return type: number; implicit unit h.

[[record]]
smiles_input = "CC1(C)CCC(CN2CCN(c3ccc(C(=O)NS(=O)(=O)c4ccc(OCC5CCOCC5)c([N+](=O)[O-])c4)c(Oc4cnc5[nH]ccc5c4)c3)CC2)=C(c2ccc(C(F)(F)F)cc2)C1"
data_value = 5.7


Given CC1(C)CCC(CN2CCN(c3ccc(C(=O)NS(=O)(=O)c4ccc(NCC5CCOCC5)c([N+](=O)[O-])c4)c(Oc4cnc5[nH]ccc5c4)c3)CC2)=C(c2ccc(Cl)cc2)C1 , state its recorded MRT last at 24 h. 4.71

Ref: ChEMBL document CHEMBL4825763
